Recorded values, source the DeepSol protein solubility set.

Experiment: soluble on expression in E. coli; label from the status in PepcDB or PDB records
OBSERVED PROPERTY: soluble on expression in E. coli

MPGPILKKCFNCRVALPEDAINTAQCQKCQKNEAKYGKPGTCQYCKLNAAFHDQKCVWCSHAERKFGNPFPCANCKLSCAFPRRESDKVEGAALLCRLCILQARHTNQTVVAGIPVPPEKPERSGEGSSTEQRDRDHRQHRPTSHHHRDHKDHHRRDDKHHHRDSNHRHAHKRRHQEEPNNNSNNGTSSSGGAPPLVPNNENGNGFPPFGDRDPGESMVKQQKMEDEIRRLKTLLAEKDQLIFDKDKQISNLKADQYNLDKKHRERVQQLIKEKEDSIRAIEQMRNSKSSKRN :: not soluble
NKDMNFTIRANYTFSQNVIDYFEENKLPYDYLSVTGKPFNILRGYISEGLFASKEEINTSPDQSGFGTIRPGDIKYRDVNGDGIINEDDKVPLSYSNQLPRMMYGFGGDFQWKDLTVSILFKGSAKVDYYRAGLGNDYGWIPFYNGDLGNVIKLANNPKNRWTPAWYSGTTATENPNAEFPRLSYGKNTNNSQLSSFWRRNGSFLRLQEVSLRYSLKHLPWIKSVGLSSVDLEFVANNLFTIDKVKYFDPEQASANGAVYPIPATYAFQVYLRF :: not soluble
EVVVVGYQEVRRRDLTGSVAKANMADVLTAPVASFDQALGGRIAGVNVTSGEGMPGGNMSIVIRGNNSLTQENSPLFVIDGFPIEDSSAASTLNPSDIESLDFLKDASATAIYGARGANGVVIITTKKGK :: not soluble

====

Assay: soluble on expression in E. coli; label from the status in PepcDB or PDB records
OBSERVED PROPERTY: soluble on expression in E. coli

Sample records with soluble on expression in E. coli:
MGSDKIHHHHHHMNKRRNGLSSRSSTKGITTITIDPLMLVEMMHIHDSAFPIGGYTHSFGLETYIQRDIVKDENSLIQWCRTYLYDNLGYGDGILLKETLEVLKKSGSLAAIIEVDRLAHAQKLARESREGSLKMGRQFLQTVLPLQEDESLSQWAQLIRAKEAHGHYATTYGVFSYTRAYPDQMTMIAFLYSSVANLVHNAVRAIPLGQSTGVRVIHQLHEDCLYVAQQVVARSLNDLSNHAIGIELASMEHEHLHSRLFIS :: not soluble
MSLSGMELSYRRSDLIFKRPAGTSRGVLTSKPTWFVRLDIDGHGGQGEVSLIPGLSLDPEEQIGRELDLLARRLRAEEPIRLRQFLAERGGADFSDYRSVLTDIAGILDSWQVSTDGRFPALRFALEMALLDLLSGGRQEWFASDFTRGEKRIPVNGLIWMGEAAFMQEQIEAKLAEGYGCLKLKIGAIDFDKECALLAGIRESFSPQQLEIRVDANGAFSPANAPQRLKRLSQFHLHSIEQPIRQHQWSEMAALCANSPLAIALDEELIGLGAEQRSAMLDAIRPQYIILKPSLLGGFHYAGQWIELARERGIGFWITSALESNLGLAAIAQWTALYQPTMPQGLGTGQLYTNNLPSNLAVDGGLLGVSEGHHHHHH :: soluble
MGIMADRLASMVVKATSPDGQIEGELRDRDAVSVAFRGDTYRHYTEYSLGTQLSRLALRMWTGYQRGYDEAVAEATGRPVSRSQETWDANRRRFRQEQAATTVTGMSTDGWIYIQNTGMTSWHVVIRQGTLSKLDEDQFVAELMDAYNTMITEYRFATADLRAKHYGVSFQPRNPPVKELRA :: not soluble
MGSDKIHHHHHHMYIESFKQHFSAIDDHRQSAKVTYPLFDVLFGSLCAVIASSNGWFEIREYILGHHSWFKKQKMFIDGIPADDTIARIVSMIEPDSFNACFLAWMKSVHQLTNGEVIAIDGKTLRGSYNRDDRSSTIHMISAYASANKLVLGQLKAEQKSNEITAIPTLLKMLDLRGALVTIDAMGCQTAIATTIIDKGGDYLLAVKNNQGNLAKAINKAFSSHRSAGLSDDHVNIEKSHGRIENRACFVLSSAELDGDFTHWEALKSIVMVESFRAVKGKTASLEYRYYISSKVLSAEQALSATREHWGIESMHWVLDVSMNEDECQIYKNNGAENLAYLRHMSLNMLQKEPTKLSIVGKRKRCLMNPAFLEKVLIAGLCAPTK :: not soluble
MGSDKIHHHHHHMILRKKKSLNAGPINGTGEGVAHSKRWYVALVRMHHEKKVSEHLDKMGIENFVPVQQELHQWSDRRKLVTSVLLPMMVFVHADPKERMEVLSFSTVSRYMVMRGESSPAVIPDEQMARFRFMLDYSEESISMNSSPLARGEKVRVIKGPLTGLVGELVNVDGRSKIAVRLNMLGCACVDMPVGYVEPIMAAV :: not soluble
MGSDKIHHHHHHMHFVMIFLDGFGLGGDRDNPIMAAHTPYIDELLGGHYLWGQERRIESEQLILIPLDASLDVTGIPQSATGQTTLWTGVNGAKALGFHLNAYPNEKLAEIIKEKSIFKQLADQGKKVTFANTFTSHYDEMIASGKRRHTASTLSALAGGVPLRRIEDLLQGKGVYQDMTNEILRELEQEADIPLITSYEAGKNLGRLALDYDFTLYEFFQTDVRGHKQDWEKAVALIEQIDGFIGGFMSVVRHEDVTWLLTSDHGNIEDFRVKGHTQNPVPALGWSSKPLEWPQWERLEDVTPGIVRMILGTREL :: not soluble
MRQYVCCNYNEKEIKMKKFHFTDTSLFWGFSEEEAESVLKCLSAVNKTYKKDEYIFRMGDTITSVGMVLTGSVQVIREDYWGNRQIIAVMGEGQLFGESYACAGGEPLMVSVMAEENTEVLFLEVGRLLTVCSMACRFHSRVIQNLLKVIAGRNLTLTTKIDHMSKKTIREKVLSYLSYQAEKQGKNRFEIPFNRQQLADYLAVDRSALSAELSKMQKEKLISYDRNHFILP :: not soluble
KQAQVDYLALPGDAKLDTRSVDYKCENGRKFTVQYLNKGDNSLAVVPVSDNSTLVFSNVISASGAKYAAGQYIWWTKGEEATLYGDWKGGEPTDGVACKER :: soluble
MSLRNKLLTIFDSVDESARIKDAFITQLESSITDAGVLALKLELLDFLTSNLSNYSRTMTISHLLLGFQVSNVISLGPNLATFISSGTSLLDSLISVLEASLNSITKDNIDYAPMRLATAALEIILKLCRNPLTSGLLYSYLIKENFFERIMILDPQVTRFTTWNGSPFDNSTEEKCKNFIESESVGAFLSFLAYRNYWTQYLGLFIHKISFSGTKSEVLTYVNYLISNTMYSVRLFSFLDPLNYGNICEPKETLSIFTNVPLNLEQVTLNKYCSGNIYDFHKMENLMRLIKRVRAESLHSNEGHHHHHH :: soluble
MSLNAQTLLANVAELVKTKLKPLVDDIDRKGYYPEAFMRELGAIGAVGIEAEGGNGLGLATRIAVLREIGKECGATSFSAWCQAACAWYLHQTPNQAVKDKYLADILQGKVLAGTGMSNTVKHLAGIEKHNLQAECVEGGYTVNGALPWVSNIGEDHIWANTAQIGGGYVMFITGGQREGVSLQNCPEFCALEGTHTFSLNFKDVFIPDEDIIAAPEQFAGYIQSIKAGFILLQIGIGAGVIDGSLGIIRLVNVVNAEVNSYLDDGYDSLKARLDGAWAETERLAGLAWDNTPDNLATLKLREAAAVLALAAAQSAALHSGAKGYLMRSPAQRRVGEAMFVAIVTPAIKHLCKEIAAIEAAKEGHHHHHH :: not soluble

Give the value of soluble on expression in E. coli reported for the following: `GPLGSMINAKTKVIGLIGHPVEHSFSPIMHNAAFKDKGLNYVYVAFDVLPENLKYVIDGAKALGIVGFNVTIPHKIEIMKYLDEIDKDAQLIGAVNTIKIEDGKAIGYNTDGIGARMALEEEIGRVKDKNIVIYGAGGAARAVAFELAKDNNIIIANRTVEKAEALAKEIAEKLNKKFGEEVKFSGLDVDLDGVDIIINATPIGMYPNIDVEPIVKAEKLREDMVVMDLIYNPLETVLLKEAKKVNAKTINGLGMLIYQGAVAFKIWTGVEPNIEVMKNAIIDKITK`
soluble

Give the value of soluble on expression in E. coli reported for the following: `GIVATRYRDFSPLLEALTQLLFYVTPIVWTTETLYSQGGAVSERAKLAMLNPLYHYMEVIRAPLIGAPIHP`
not soluble

====

Assay: soluble on expression in E. coli; label from the status in PepcDB or PDB records
OBSERVED PROPERTY: soluble on expression in E. coli

SGCFGCFSPEVDDDLKPSKPNYHSSDESSGADARRKVAPLATDGGNGYAHSFTFKDLSVATGYFNEANFIGEGGFGKVYKGKINGQMVAVKQLTRDGVQGRNEFLVEVLMLTVLNHPHLVSLVGFCAQGDERLLVYEYMPFGSLESHLFDVPLGKQPLDWNTRMRIAVGVAEGLSYLHNVADPPIIYRDMKAANILLDEDYRPKLSDFGLAKVGPVGDRTHVSTRVMGTYGYCAPDYVVSGKLTMKSDIYSFGVLLLELITGRRIYDASRPKPEQSLLTWSRPFLHDKRKFYRLADPALHGCYPTSALNQLVVISIMCLQDQPHVRPIISDVVIGLNHVASQPYVPERSSVSLSSPARCGSPQYAGTPSRRRGGRRVAQYA :: soluble
MEQQRDFDSALAWHRKAKCAGKAGSADVLPGHDKDANAARVVELCAMCADCPVFEQCGREAIAEPFLTLGVVRAGIPDTTQSKSKQKKLLQQVIDEGVPPPVALIMALKDRKGYEGALVGLAGLYEAYRGVYV :: not soluble
MAHHHHHHMKGTLAGYTRGLHGQTKQTALVRVENVNTREDATWYVGKRVCYVYHGKKVKRCVRWSKAPARRSTTRALWGRVTRPHGNAGMMRVKFNGASVPASAIGRRIRVYLYPSQI :: soluble
MGMSSLRDLGLSEYEARAYRSLLETGPTTAKELSRASDVPMGRIYDVLNSLETYNLVRSQTASRPKKYVAVEPDTALDRLLEDKKRELQEKVGQYEEIVDDLSSQLESADPVEEPFWTAAVGPDNSLDLLLERLAAADDEIIMVGSAPARQVDILSGTERIVDELEAALERGVEVSLLVRPDLFESLPEEANREYYERLFHYDNYSARASPNIRTTFELLDGVEVCIEVPHPLGREETFGVIDMKDSDFTADISQAFEEHWAEAKPVGPP :: not soluble

Give the value of soluble on expression in E. coli reported for the following: `MAHHHHHHMNAMYSADQIHVPPELGTIMKQYTKAVMRDKPTDLYKYSANFFAILSGYAAPFDSEGQLMENGVQEASSRSTVPISFGSEKEENAGSQDPTDILLRRYDRTGTGYMDPAELPQLLAELRMNLSLDEKDVVSAEDILAALPSACDQIDLLELRNLLLESMGD`
soluble

Give the value of soluble on expression in E. coli reported for the following: `MINANRPIINLDLDLLRTFVAVADLNTFAAAAAAVCRTQSAVSQQMQRLEQLVGKELFARHGRNKLLTEHGIQLLGYARKILRFNDEACSSLMFSNLQGVLTIGASDESADTILPFLLSRISSVYPKLALDVRVKRNAYMVDMVKSQEVDLVVTTNQPHSLDCLNLRTSPTHWYCAAEYVLQRGEPVPLVLLDDPSPFRDMVLETLNAAGIPWRLAYVASTLPAVRAAVKAGLGVTARPVEMMSPDLRVLGAADGLPPLPDTEYLLCRDPNSQNELAMVIFHAMESYQNPWHYNQFSAEGGDDPLMVEGGFE`
not soluble

Give the value of soluble on expression in E. coli reported for the following: `MKAVGFLLLLTILTLAYAKKSGDVTELQIGVKYKPQKCDLQAHKGDKIKVHYRGKLTDGTVFDSSFERGDPIEFELGTGQVIPGWDQGLLGACVGEKRKLKIPSKLGYGDNGSPPKIPGGATLIFDTELVAVNGEPSSEAKSKNEL`
soluble

Give the value of soluble on expression in E. coli reported for the following: `MKIKLEHGAGGELMEELIRDVILKNLTLNSAGGIGLEALDDGATIPFEGKHLVFTIDGHTVRPLFFPGGDIGRLAVSGTVNDLAVMGAKPLALASSLIIGEGFDSDKLEEILKSMNRTAKEVPVPIITGDTKVVEDNIEIFVITAGIGIAEKPISDAGAKVGDLVLVNGTIGDHGIALMSHREGISFETELKSDVAPIWDVVKTVADAIGWENIHAMKDPTRGGLSNALNEMARKADVGILVRESDIPIRPEVKAAGDMLGISPYDVANEGKVIMVVDREYAEDALEAMRKTEKGKDAAIIGEIIKDYPGKVILETGIGGRRFLEPPIGDPVPRVC`
soluble

Give the value of soluble on expression in E. coli reported for the following: `MGSDKIHHHHHHAEVADSIEGGNGEAPLEVRAVTGAEVDTRAPAAVEMTEGTLGIFRLAEADYTALDNIRYDRVPGGNWHPVSTVIYVGGTYARLCAYAPYNSVEFKNSSLKTEAGLTMQTYAVEKDMRFAVSGGDEVWKKTPTANFELKRAYARLVLSVVRDATYPNTCKITQAKIKASTGNIITANTVDISTGTEGSGTQTPQYTHTVTTGLKDGFEIGVTDDTSFDWLLPQQTFSGGVVLTLTVDGMDYSVTIPVDKLSTFVRGTKYTVSLVVKGGKLTLMSDKILIDRDWTEVQTGTGGSGSDYDTSFN`
not soluble
